# reported log10 of Ki; entries follow
molecular target: human Y5 receptor (Homo sapiens, UniProt Q15761); construct: expressed in transfected cells; host or cells: mouse fibroblast LM(tk-) cells, e.g. L-hY5-7 (ATCC CRL-11995); test: Radioligand binding to membranes, cloned human Y5 receptor; conditions: Table 1; read-out: Ki (nM) hNPY-5
Sequence (Q15761 whole entry): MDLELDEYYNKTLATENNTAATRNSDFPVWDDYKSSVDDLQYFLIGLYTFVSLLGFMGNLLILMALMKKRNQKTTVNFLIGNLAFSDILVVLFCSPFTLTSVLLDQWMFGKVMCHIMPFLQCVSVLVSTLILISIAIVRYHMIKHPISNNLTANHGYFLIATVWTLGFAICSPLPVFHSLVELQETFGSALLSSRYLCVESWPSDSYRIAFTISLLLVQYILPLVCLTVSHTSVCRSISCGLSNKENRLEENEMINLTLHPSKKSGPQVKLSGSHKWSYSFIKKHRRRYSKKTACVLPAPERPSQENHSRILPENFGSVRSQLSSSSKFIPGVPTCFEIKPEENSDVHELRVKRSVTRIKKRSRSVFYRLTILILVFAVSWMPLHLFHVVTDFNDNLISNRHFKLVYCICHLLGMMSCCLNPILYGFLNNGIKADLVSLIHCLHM
A value of 2 here means Ki of 100 in nM, since values are log10.

In the examples that follow, each entry is paired with its recorded log10 of Ki.
# Compound, Result number
records = [
    ("CC(C)Nc1nc(NCC2CCC(CNS(=O)(=O)c3cccc4ccccc34)CC2)nc(NC2CCC2)n1 (centres unmarked)", 1.34),
    ("CC(C)Nc1nc(NCC2CCC(CNS(=O)(=O)c3cccc4ccccc34)CC2)nc(N2CCCC2)n1 (centres unmarked)", 1.28),
    ("C=CCNc1nc(NCC2CCC(CNS(=O)(=O)c3cccc4ccccc34)CC2)nc(NC(C)C)n1 (centres unmarked)", 1.08),
    ("CCN(C)c1nc(NCC2CCC(CNS(=O)(=O)c3cccc4ccccc34)CC2)nc(NC(C)C)n1 (centres unmarked)", 1.51),
    ("CCNc1nc(NCC2CCC(CNS(=O)(=O)c3cccc4ccccc34)CC2)nc(NC(C)C)n1 (centres unmarked)", 0.85),
    ("CC(C)Nc1nc(NCC2CCC(CNS(=O)(=O)c3cccc4ccccc34)CC2)nc(N2CCCCC2C)n1 (centres unmarked)", 1.83),
    ("CC(C)Nc1nc(NCC2CCC(CNS(=O)(=O)c3cccc4ccccc34)CC2)nc(N(C)CCO)n1 (centres unmarked)", 1.93),
]

We next turn to a different compound, shown below.
Consider the compound shown here: CC(C)Nc1nc(NCC2CCC(CNS(=O)(=O)c3cccc4ccccc34)CC2)nc(NC2CC2)n1 (centres unmarked) What is its recorded log10 of Ki?
0.95
